tested on: SL1 RNA; test: RNA-detected NMR binding site mapping (2D-1H,1H-TOCSY and 1D-1H); parameters: species or system SARS-CoV-2; conditions: 2D TOCSY; RNA 150 μM, compound 1 mM, 298 K
# strict inequality: 1H,1H CSPs [ppm] C19H5-H6 < 0.005 ppm yields Condition met, everything else yields Condition not met

Just wondering, is 1H,1H CSPs [ppm] C19H5-H6 of CNC(=N)Nc1nc2ccc(OC)cc2s1 below 0.005 ppm?
Condition not met

Please indicate whether the reported 1H,1H CSPs [ppm] C19H5-H6 of COc1ccc2nc(NC(=O)CN3CCC[C@H](N)C3)sc2c1 is strictly below 0.005 ppm.
Condition met

Please let me know if COc1ccc2nc(NC(=O)CN(C)C)sc2c1 shows 1H,1H CSPs [ppm] C19H5-H6 below 0.005 ppm.
Condition not met

###

system: SL1 RNA; test: RNA-detected NMR binding site mapping (2D-1H,1H-TOCSY and 1D-1H); parameters: species or system SARS-CoV-2; conditions: 2D TOCSY; RNA 150 μM, compound 1 mM, 298 K
Catalogue of molecules with associated 1H,1H CSPs [ppm] C28H5-H6
Use ppm as the unit, but write only the number.

> print(dat)
                             molecule          measuredparameter  observedmeasurement
1  CC(=O)c1ccc(NC(=O)CN2CCCC2)cc1 [B]  1H,1H CSPs [ppm] C28H5-H6               0.0263

Please list 1H,1H CSPs [ppm] C28H5-H6 recorded for the molecule CNC(=N)Nc1nc2ccc(OC)cc2s1 [A.4]
0.1355

Supply reported 1H,1H CSPs [ppm] C28H5-H6 belonging to this molecule: CNC(=O)Nc1nc2c(OC)cc(OC)cc2s1 [A.11]
0.0130

// Input: COc1ccc2nc(NC(=O)CN(C)C)sc2c1 [A.2] . Output its 1H,1H CSPs [ppm] C28H5-H6 only.
0.0813

###

test system: SL1 RNA; test: RNA-detected NMR binding site mapping (2D-1H,1H-TOCSY and 1D-1H); set-up: species or system SARS-CoV-2; conditions: 2D TOCSY; RNA 150 μM, compound 1 mM, 298 K
measuredParameter: 1H,1H CSPs [ppm] C20H5-H6 (ppm)
Give the value, in units of ppm, as a plain number.

> print(dat)
                                 smilesstr  targetortestsystem  valueunit  observedmeasurement
1  COc1ccc2nc(NC(=O)CN3CCC[C@H](N)C3)sc2c1             SL1 RNA        ppm               0.0029
2                CNC(=N)Nc1nc2ccc(OC)cc2s1             SL1 RNA        ppm               0.0526
3            CNC(=O)Nc1nc2c(OC)cc(OC)cc2s1             SL1 RNA        ppm               0.0045
4              CNC(=O)Nc1nc2c(O)cc(O)cc2s1             SL1 RNA        ppm               0.0022
5     COc1ccc(-c2nnc(NC(=O)CN(C)C)s2)cc1OC             SL1 RNA        ppm               0.0021
6            COc1ccc2nc(NC(=O)CN(C)C)sc2c1             SL1 RNA        ppm               0.0143
7           CC(=O)c1ccc(NC(=O)CN2CCCC2)cc1             SL1 RNA        ppm               0.0030

Next, consider the following compound.
Give 1H,1H CSPs [ppm] C20H5-H6 for CNC(=O)Nc1nc2ccc(OC)cc2s1
0.0050
